Target: thymidine phosphorylase/PD-ECGF (E. coli) (Escherichia coli, UniProt P07650)
Construct: purchased
Sequence (P07650 whole entry): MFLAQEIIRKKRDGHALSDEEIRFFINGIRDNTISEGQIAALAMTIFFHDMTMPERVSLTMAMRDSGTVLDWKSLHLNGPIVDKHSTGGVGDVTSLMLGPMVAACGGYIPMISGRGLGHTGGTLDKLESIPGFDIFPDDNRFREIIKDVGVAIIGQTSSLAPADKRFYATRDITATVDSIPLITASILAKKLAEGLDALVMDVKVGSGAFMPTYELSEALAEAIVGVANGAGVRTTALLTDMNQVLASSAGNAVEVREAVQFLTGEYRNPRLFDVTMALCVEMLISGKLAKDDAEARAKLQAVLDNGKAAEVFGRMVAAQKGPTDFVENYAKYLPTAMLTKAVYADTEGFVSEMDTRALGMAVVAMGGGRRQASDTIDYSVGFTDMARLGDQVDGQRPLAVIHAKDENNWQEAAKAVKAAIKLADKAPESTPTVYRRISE
Test: Thymidine phosphorylase inhibition assay (absorbance at 290 nm)
Type: biochemical
Conditions: compared with standard 7-Deazaxanthine
metric: thymidine phosphorylase inhibition, result in words

>  <structure>
Oc1ccc(-c2csc3nnc(-c4cnc5ccccc5n4)n23)cc1O

>  <readout-value>
outstanding inhibition

$$$$
>  <structure>
COc1ccc(O)c(-c2csc3nnc(-c4cnc5ccccc5n4)n23)c1

>  <readout-value>
outstanding inhibition

$$$$
>  <structure>
Fc1ccc(-c2csc3nnc(-c4cnc5ccccc5n4)n23)cc1

>  <readout-value>
outstanding inhibition

$$$$

* * *

Target: thymidine phosphorylase/PD-ECGF (E. coli) (Escherichia coli, UniProt P07650)
Construct: purchased
Test: Thymidine phosphorylase inhibition assay (absorbance at 290 nm)
Type: biochemical
Conditions: compared with standard 7-Deazaxanthine
Method: Since human TP is not easy to obtain, we used commercially available recombinant E. coli TP. The primary sequence of TP is frequently preserved throughout evolution as mammalian TP is reported to share 39% sequence resemblance with the TP of E. coli. […] The thymidine phosphorylase/PD-ECGF (E. coli) activity was determined by measuring the absorbance at 290 nm spectrophotometrically. […] After incubation, a pre-read at 290 nm was taken to deduce the absorbance of substrate particles. […]
metric: thymidine phosphorylase inhibition, result in words

Take a look at these entries with their results.
>  <structure>
Oc1cccc(-c2csc3nnc(-c4cnc5ccccc5n4)n23)c1

>  <readout-value>
outstanding inhibition

$$$$
>  <structure>
Oc1ccccc1-c1csc2nnc(-c3cnc4ccccc4n3)n12

>  <readout-value>
outstanding inhibition

$$$$
>  <structure>
COc1cccc(-c2csc3nnc(-c4cnc5ccccc5n4)n23)c1

>  <readout-value>
inactive

$$$$
>  <structure>
COc1ccc(-c2csc3nnc(-c4cnc5ccccc5n4)n23)cc1

>  <readout-value>
inactive

$$$$
>  <structure>
Clc1ccc(-c2csc3nnc(-c4cnc5ccccc5n4)n23)cc1

>  <readout-value>
outstanding inhibition

$$$$
>  <structure>
COc1ccc(-c2csc3nnc(-c4cnc5ccccc5n4)n23)cc1O

>  <readout-value>
outstanding inhibition

$$$$

# return recorded thymidine phosphorylase inhibition, result in words for entry COc1ccc(-c2csc3nnc(-c4cnc5ccccc5n4)n23)c(O)c1
outstanding inhibition

Give the reported value of thymidine phosphorylase inhibition, result in words for this record: Oc1ccc(-c2csc3nnc(-c4cnc5ccccc5n4)n23)c(O)c1
outstanding inhibition

Please give measured thymidine phosphorylase inhibition, result in words of the following entry: Fc1cccc(-c2csc3nnc(-c4cnc5ccccc5n4)n23)c1
outstanding inhibition

// Input: Clc1ccccc1-c1csc2nnc(-c3cnc4ccccc4n3)n12 . Output its thymidine phosphorylase inhibition, result in words only.
outstanding inhibition

* * *

Biological target: thymidine phosphorylase/PD-ECGF (E. coli) (Escherichia coli)
Construct: purchased
Test: Thymidine phosphorylase inhibition assay (absorbance at 290 nm)
Type: biochemical
Settings: Table 1; triplicate; read-out: IC50 (µM ± SEM)
Labelling field: enter rule met if recorded IC50 is less than 30 µM. Enter rule not met if it equals or exceeds that cut-off.

See these solved cases before continuing.
>  <compound>
Cc1ccccc1-c1csc2nnc(-c3cnc4ccccc4n3)n12 [Compound 9]

>  <label>
rule not met

$$$$
>  <compound>
Clc1ccccc1-c1csc2nnc(-c3cnc4ccccc4n3)n12 [Compound 4]

>  <label>
rule met

$$$$
>  <compound>
Oc1ccc(-c2csc3nnc(-c4cnc5ccccc5n4)n23)cc1 [Compound 13]

>  <label>
rule met

$$$$
>  <compound>
O=[N+]([O-])c1ccc(-c2csc3nnc(-c4cnc5ccccc5n4)n23)cc1 [Compound 8]

>  <label>
rule not met

$$$$
>  <compound>
Clc1ccc(-c2csc3nnc(-c4cnc5ccccc5n4)n23)cc1 [Compound 6]

>  <label>
rule met

$$$$

Please let me know if Fc1ccccc1-c1csc2nnc(-c3cnc4ccccc4n3)n12 [Compound 1] shows IC50 below 30 µM.
rule met

* * *

Target: thymidine phosphorylase/PD-ECGF (E. coli) (Escherichia coli, UniProt P07650)
Construct: purchased
Assay: Thymidine phosphorylase inhibition assay (absorbance at 290 nm)
Type: biochemical
Details: compared with standard 7-Deazaxanthine
metric: thymidine phosphorylase inhibition, result in words

Below are worked cases with known answers.
>  <structure>
c1ccc2nc(-c3nnc4scc(-c5ccncc5)n34)cnc2c1

>  <readout-value>
inactive

$$$$
>  <structure>
c1cncc(-c2csc3nnc(-c4cnc5ccccc5n4)n23)c1

>  <readout-value>
inactive

$$$$
>  <structure>
Clc1cccc(-c2csc3nnc(-c4cnc5ccccc5n4)n23)c1

>  <readout-value>
outstanding inhibition

$$$$
>  <structure>
O=[N+]([O-])c1ccccc1-c1csc2nnc(-c3cnc4ccccc4n3)n12

>  <readout-value>
outstanding inhibition

$$$$
>  <structure>
Fc1ccccc1-c1csc2nnc(-c3cnc4ccccc4n3)n12

>  <readout-value>
outstanding inhibition

$$$$

Given Cc1cccc(-c2csc3nnc(-c4cnc5ccccc5n4)n23)c1 , respond with its thymidine phosphorylase inhibition, result in words.
inactive

// fetch thymidine phosphorylase inhibition, result in words given entry Oc1ccc(O)c(-c2csc3nnc(-c4cnc5ccccc5n4)n23)c1
outstanding inhibition

Indicate the recorded thymidine phosphorylase inhibition, result in words value for this compound: Oc1ccc(-c2csc3nnc(-c4cnc5ccccc5n4)n23)cc1
outstanding inhibition

* * *

IC50 reference
Target: thymidine phosphorylase/PD-ECGF (E. coli) (Escherichia coli, UniProt P07650)
Construct: purchased
Experiment: Thymidine phosphorylase inhibition assay (absorbance at 290 nm)
Assay type: biochemical
Conditions: Table 1; triplicate; read-out: IC50 (mM ± SEM)
Express it in mM; write the number only.

The following molecules have reported results that may help.
>  <molecule>
COc1ccc(-c2csc3nnc(-c4cnc5ccccc5n4)n23)c(O)c1 [Compound 17]

>  <unit-label>
mM

>  <IC50>
0.0242

$$$$
>  <molecule>
Oc1ccc(O)c(-c2csc3nnc(-c4cnc5ccccc5n4)n23)c1 [Compound 15]

>  <unit-label>
mM

>  <IC50>
0.0152

$$$$
>  <molecule>
Oc1cccc(-c2csc3nnc(-c4cnc5ccccc5n4)n23)c1O [Compound 25]

>  <unit-label>
mM

>  <IC50>
0.0032

$$$$

Indicate its recorded IC50; the molecule in question is Oc1ccccc1-c1csc2nnc(-c3cnc4ccccc4n3)n12 [Compound 24]
0.0131

Complete the entry with IC50 for COc1ccc(-c2csc3nnc(-c4cnc5ccccc5n4)n23)cc1O [Compound 18]
0.0169

For the molecule COc1ccc(O)c(-c2csc3nnc(-c4cnc5ccccc5n4)n23)c1 [Compound 21] , report IC50.
0.0262

Tell me measured IC50 for Oc1ccc(-c2csc3nnc(-c4cnc5ccccc5n4)n23)c(O)c1 [Compound 14] please.
0.0132

Please give measured IC50 of the following entry: Oc1ccc(-c2csc3nnc(-c4cnc5ccccc5n4)n23)cc1O [Compound 16]
0.0035

* * *

Target: thymidine phosphorylase/PD-ECGF (E. coli) (Escherichia coli)
Construct: purchased
Test: Thymidine phosphorylase inhibition assay (absorbance at 290 nm)
Assay type: biochemical
Settings: Table 1; triplicate; read-out: IC50 (µM ± SEM)
Quick rule for you: IC50 under 30 µM gets 1, anything else gets 0.

Below are worked cases with known answers.
>  <structure>
Fc1cccc(-c2csc3nnc(-c4cnc5ccccc5n4)n23)c1

>  <label>
1

$$$$
>  <structure>
Clc1cccc(-c2csc3nnc(-c4cnc5ccccc5n4)n23)c1

>  <label>
0

$$$$
>  <structure>
O=[N+]([O-])c1ccccc1-c1csc2nnc(-c3cnc4ccccc4n3)n12

>  <label>
0

$$$$
>  <structure>
Oc1cccc(-c2csc3nnc(-c4cnc5ccccc5n4)n23)c1

>  <label>
0

$$$$

Is the reported IC50 for Fc1ccc(-c2csc3nnc(-c4cnc5ccccc5n4)n23)cc1 strictly below 30 µM?
1
